Target or test system: 5-HT1A receptor (Rattus norvegicus)
Construct: Hippocampal homogenates (15 μg/mL) were added to each tube as the 5-HT1A receptor source; from tissue; host or cells: rat hippocampus (male Sprague-Dawley), membrane homogenate
Sequence (P19327 whole entry): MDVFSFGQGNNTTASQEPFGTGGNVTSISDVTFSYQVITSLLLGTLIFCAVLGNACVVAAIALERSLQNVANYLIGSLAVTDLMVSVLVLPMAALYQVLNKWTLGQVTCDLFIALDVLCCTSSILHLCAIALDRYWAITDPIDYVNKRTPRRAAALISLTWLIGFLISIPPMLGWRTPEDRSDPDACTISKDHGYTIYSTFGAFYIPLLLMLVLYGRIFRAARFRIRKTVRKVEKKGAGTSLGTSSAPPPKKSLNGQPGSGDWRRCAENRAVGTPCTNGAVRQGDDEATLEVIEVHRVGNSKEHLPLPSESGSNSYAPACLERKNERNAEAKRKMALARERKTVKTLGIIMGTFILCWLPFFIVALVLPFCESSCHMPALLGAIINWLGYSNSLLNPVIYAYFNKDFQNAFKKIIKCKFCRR
Assay notes: Antagonist activity for the 5-HT1A receptor, [35S]GTPγS assay in hippocampal homogenates
Format: biochemical
Condition info: 8-OH-DPAT 1.4 × 10^−7 M, mean ± SEM
pIC50: −log10 of the molar value.
Measured parameter: pIC50

| Chemical structure | Target or test system | Numeric readout |
| --- | --- | --- |
| CC(=O)c1c(OCCCCCN2CCN(c3cc(C)ccc3C)CC2)ccc2c(C)cc(=O)oc12 | 5-HT1A receptor (Rattus norvegicus) | 4.90 |
| CC(=O)c1c(C)cc2oc(=O)cc(C)c2c1OCCN1CCN(c2cccc(Cl)c2Cl)CC1 | 5-HT1A receptor (Rattus norvegicus) | 5.50 |
| CC(=O)c1c(OCCCCCN2CCN(c3cccc(Cl)c3Cl)CC2)ccc2c(C)cc(=O)oc12 | 5-HT1A receptor (Rattus norvegicus) | 4.20 |
| COc1cccc(N2CCN(CCCCCOc3c(C(C)=O)c(C)cc4oc(=O)cc(C)c34)CC2)c1 | 5-HT1A receptor (Rattus norvegicus) | 5.80 |
| COc1ccccc1N1CCN(CCCCCOc2c(C(C)=O)c(C)cc3oc(=O)cc(C)c23)CC1 | 5-HT1A receptor (Rattus norvegicus) | 7.40 |
| CC(=O)c1c(C)cc2oc(=O)cc(C)c2c1OCCN1CCN(c2ccccc2F)CC1 | 5-HT1A receptor (Rattus norvegicus) | 5.30 |
| CC(=O)c1c(OCCN2CCN(c3ccccc3F)CC2)ccc2c(C)cc(=O)oc12 | 5-HT1A receptor (Rattus norvegicus) | 4.30 |
| Cc1cc(OCCCCCN2CCN(c3ccccc3Br)CC2)c2c(C)cc(=O)oc2c1 | 5-HT1A receptor (Rattus norvegicus) | 4.70 |
| CC(=O)c1c(C)cc2oc(=O)cc(C)c2c1OCCCCCN1CCN(c2cccc(Br)c2)CC1 | 5-HT1A receptor (Rattus norvegicus) | 5.89 |
